molecular target: Stimulator of interferon genes protein (Homo sapiens); test: Agonist activity at full length human STING expressed in HEK293T cotransfected with pISRE-luc and cGAS incubated for 24 hrs by steady-glo luciferase reporter gene assay
Sequence (Q86WV6 whole entry): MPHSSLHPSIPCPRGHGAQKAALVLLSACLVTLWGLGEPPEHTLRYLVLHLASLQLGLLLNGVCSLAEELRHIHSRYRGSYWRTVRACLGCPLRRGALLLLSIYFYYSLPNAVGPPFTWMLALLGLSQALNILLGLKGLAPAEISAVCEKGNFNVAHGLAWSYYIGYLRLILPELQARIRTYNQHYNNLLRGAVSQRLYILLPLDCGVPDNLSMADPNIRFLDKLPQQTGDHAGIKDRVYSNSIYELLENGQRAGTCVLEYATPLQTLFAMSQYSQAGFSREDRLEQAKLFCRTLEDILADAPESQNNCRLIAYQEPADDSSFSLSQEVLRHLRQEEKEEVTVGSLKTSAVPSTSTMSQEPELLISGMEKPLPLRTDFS
Reported Property: pEC50
Schema: pEC50 number; meaning minus log10 of the concentration expressed in molar units.

Ask: Answer with pEC50 of CCCn1c(NC(=O)c2cc(C)nn2CC)nc2cc(C(N)=O)cc(OCN3CCOCC3)c21 measured for Stimulator of interferon genes protein (Homo sapiens).
Reply: 6.00
